# System: Candida albicans
# test-summary: In vivo antifungal activity administered orally against Candida albicans infections in mice.
# Assay type: functional
# condition-description: po
Numbered stars: 1 amine (or outer) side, 2 acyl side, 3 side chain; on linkers, the order of the positions; unused ones are H or OH. Bridge positions count the residues as written; N and C are the ends. Square brackets hold non-standard residues; d marks the D form. Peptide text beside a SMILES is read from it. * marks the point of attachment. Orn(4R-OH,5R-OH) = O=C([C@H](C[C@@H](O)[C@@H](O)N[*:3])N[*:1])[*:2]; hTyr(3S-OH,4S-OH) = N[C@H](C(=O)O)[C@H](O)[C@@H](O)c1ccc(O)cc1; Pro(3S-OH,4S-Me) = C[C@H]1CN[C@H](C(=O)O)[C@H]1O; X5 = O=C(c1ccc(C#Cc2ccc(C#Cc3ccccc3)cc2)cc1)*; Hyp = O=C(O)[C@@H]1C[C@@H](O)CN1
quantity-kind: ED50 (mg/kg)
State just the number; it will be interpreted in mg/kg.

Q: // Input: C[C@@H](O)[C@@H]1NC(=O)[C@H]([C@H](O)[C@@H](O)c2ccc(O)cc2)NC(=O)[C@@H]2C[C@@H](O)CN2C(=O)[C@H]([C@@H](C)O)NC(=O)[C@@H](NC(=O)c2ccc(C#Cc3ccc(C#Cc4ccccc4)cc3)cc2)C[C@@H](O)[C@@H](O)NC(=O)[C@@H]2[C@@H](O)[C@@H](C)CN2C1=O (X5-[Orn(4R-OH,5R-OH)]T[Hyp][hTyr(3S-OH,4S-OH)]T[Pro(3S-OH,4S-Me)]; lactam 1-C) . Output its ED50 only.
Ans: 16
